experiment: Pharmacokinetic and oral bioavailability tests in SD rats; assay type: in vivo; settings: Sprague-Dawley (SD), rat, plasma, oral, 10.0 mg/kg
Endpoint: Cmax (ng/mL)
The answer is to be given in ng/mL; state only the numeric part.

Lookup result for Cc1c(C#Cc2cnc3ccc(N4CCC(O)CC4)nn23)cccc1C(=O)Nc1cc(Cl)cc(C(F)(F)F)c1 ; measured Cmax: 44100

* * *

molecular target: BaF3-ETV6-NTRK2-G709C (Homo sapiens, UniProt Q16620, G693C); construct: constructed pCDNA3.1(+) plasmid vector carrying genes such as; fused on or other part: P41212 (Transcription factor ETV6); assay: Drug-resistant cell proliferation inhibition (CCK-8); settings: 72 hours, read-out: drug-resistant cell viability IC50
Sequence (Q16620 538-822 G693C limits assumed): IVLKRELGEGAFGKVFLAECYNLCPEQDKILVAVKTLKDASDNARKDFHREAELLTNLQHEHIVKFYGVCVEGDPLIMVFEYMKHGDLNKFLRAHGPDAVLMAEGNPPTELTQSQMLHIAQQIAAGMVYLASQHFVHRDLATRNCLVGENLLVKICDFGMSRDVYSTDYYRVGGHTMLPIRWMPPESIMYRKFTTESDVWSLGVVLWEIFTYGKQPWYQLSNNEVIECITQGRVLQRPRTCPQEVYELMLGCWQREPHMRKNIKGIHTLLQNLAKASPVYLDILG
Each item that follows carries a reported IC50.

Smiles Entry: Cc1cn(-c2cc(NC(=O)c3cccc(C#Cc4cnc5ccc(N6CCC(O)CC6)nn45)c3C)cc(C(F)(F)F)c2)cn1
IC50: < 10 nM
--
Smiles Entry: Cc1c(C#Cc2cnc3ccc(N4CCOCC4)nn23)cccc1C(=O)Nc1cc(CN2CCN(C)CC2)cc(C(F)(F)F)c1
IC50: < 10 nM

Lookup result for Cc1c(C#Cc2cnc3ccc(N4CCC(O)CC4)nn23)cccc1C(=O)Nc1cc(CN2CCN(C)CC2)cc(C(F)(F)F)c1 ; measured IC50: 10 to 100 nM

* * *

IC50 values recorded for TRKC (Homo sapiens, UniProt Q16288)

Example cases with answers are listed next.
Compound: Cc1c(C#Cc2cnc3ccc(N(C)CCN(C)C)nn23)cccc1C(=O)Nc1cc(Cl)cc(C(F)(F)F)c1 [XS3-134]
IC50: 10 to 100 nM

Compound: Cc1c(C#Cc2cnc3ccc(N4CCC(N)CC4)nn23)cccc1C(=O)Nc1cc(Cl)cc(C(F)(F)F)c1 [XS3-131]
IC50: 10 to 100 nM

Compound: Cc1c(C#Cc2cnc3ccc(N4CCN(C)CC4)nn23)cccc1C(=O)Nc1cc(Cl)cc(C(F)(F)F)c1 [XS3-51]
IC50: < 10 nM

Proceed to the following item.
Lookup result for Cc1c(C#Cc2cnc3ccc(N4CC[C@H](O)C4)nn23)cccc1C(=O)Nc1cc(CN2CCN(C)CC2)cc(C(F)(F)F)c1 [XS3-36] ; measured IC50: < 10 nM

* * *

pIC50 values recorded for TRKA (Homo sapiens, UniProt P04629)
pIC50: −log10 of the molar value.

Smiles Entry: Cc1c(C#Cc2cnc3ccc(N4CCN(C)[C@H](C)C4)nn23)cccc1C(=O)Nc1cc(Cl)cc(C(F)(F)F)c1
pIC50: 7.00 to 8.00
//
Smiles Entry: Cc1c(C#Cc2cnc3cccnn23)cccc1C(=O)Nc1cc(Cl)cc(C(F)(F)F)c1
pIC50: 6.00 to 7.00

Measured pIC50 (TRKA (Homo sapiens, UniProt P04629)), entry Cc1c(C#Cc2cnc3cccnn23)cccc1C(=O)Nc1cc(F)cc(C(F)(F)F)c1 : 6.00 to 7.00

Measured pIC50 (TRKA (Homo sapiens, UniProt P04629)), entry Cc1c(C#Cc2cnc3ccc(NCCCCO)nn23)cccc1C(=O)Nc1cc(Cl)cc(C(F)(F)F)c1 : 7.00 to 8.00

Measured pIC50 (TRKA (Homo sapiens, UniProt P04629)), entry Cc1c(C#Cc2cnc3ccc(N4CCOCC4)nn23)cccc1C(=O)Nc1cc(CN2CCN(C)CC2)cc(C(F)(F)F)c1 : > 8.00
